Entry source: patent US10947213B1

Provide the recorded pIC50 for the entries that follow.
# tgt: TLR7/NFKb HEK cells (Homo sapiens, UniProt Q9NYK1)
# test-name: HEK Cell Assay (TLR7/NFKb reporter, Steady-Glo luciferase readout)
# particulars: 30 min compound preincubation, then R*48 agonist for 5 hours, read-out: Potency
pIC50: −log10 of the molar value. Structures can show the parent of a compound that is named as a salt.

// known answers, use as guide
[[record]]
compound = "CC1CC(N)CN(c2ccc(F)c3nccnc23)C1 (single isomer, unassigned) [Compound 340]"
value_type = "pIC50"
observed = "5.00 to 6.00"

[[record]]
compound = "CCN1CCC[C@H]1C(=O)NCC1CCN(c2ccc(C#N)c3ncccc23)CC1 [Compound 435]"
value_type = "pIC50"
observed = "> 6.00"

[[record]]
compound = "CN1CCN(CCNC(=O)C2CCN(c3ccc(C#N)c4ncccc34)CC2)CC1 [Compound 421]"
value_type = "pIC50"
observed = "> 6.00"


Your task in this section: give pIC50 for each listed record.
1. C[C@@H]1C[C@H](CN2CCC(N3CCOCC3)CC2)CN(c2ccc(C(F)(F)F)c3ncccc23)C1 (relative stereo) [Compound 535]
2. Cc1ncc(N2C[C@@H](C)C[C@@H](NC(=O)CC3CCN(C)CC3)C2)c2cccnc12 [Compound 554]
3. COc1ccc(N2C[C@@H](C)C[C@@H](NC(=O)C(N)C(F)(F)F)C2)c2cccnc12 (single isomer, unassigned) [Compound 192]
4. C[C@H]1C[C@@H](NC(=O)CC2CCCN(C)C2)CN(c2ccc(C(F)F)c3ncccc23)C1 (stereo partly drawn) [Compound 303]
5. C[C@H]1C[C@@H](NC(=O)C(N)C(F)(F)F)CN(c2ccc(C#N)c3nccnc23)C1 (single isomer, unassigned) [Compound 112, hydrochloride]
6. C[C@H]1C[C@@H](NC(=O)CC2CNC2)CN(c2ccc(C(F)F)c3nccnc23)C1 [Compound 324]

Given back:
["> 6.00", "> 6.00", "5.00 to 6.00", "> 6.00", "5.00 to 6.00", "5.00 to 6.00"]

Your task in this section: give pIC50 for each listed record.
1. C[C@H]1C[C@@H](NC2CCN(C)C2=O)CN(c2ccc(Cl)c3ncccc23)C1 (single isomer, unassigned) [Compound 261]
2. C[C@H]1C[C@@H](NC(=O)CC(F)(F)F)CN(c2ccnc3nccnc23)C1 [Compound 120]
3. C[C@H]1C[C@@H](NC(=O)CN(C)CCO)CN(c2ccnc3nccnc23)C1 [Compound 145]
4. C[C@H]1C[C@@H](NC(=O)CC2CNC2)CN(c2ccc(C(F)(F)F)c3ncccc23)C1 [Compound 288]
5. Cc1ncc(N2C[C@@H](C)C[C@@H](NC(=O)CC3(N)CCCCC3)C2)c2cccnc12 [Compound 563]

Given back:
["> 6.00", "< 5.00", "< 5.00", "> 6.00", "> 6.00"]

Measured on TLR7/NFKb HEK cells (Homo sapiens, UniProt Q9NYK1), C[C@H]1C[C@@H](NC(=O)[C@H](N)CO)CN(c2ccc(C#N)c3nccnc23)C1 [Compound 106] has a documented pIC50 of > 6.00

###

# tgt: TLR7/NFKb HEK cells (Homo sapiens, UniProt Q9NYK1)
# test-name: HEK Cell Assay (TLR7/NFKb reporter, Steady-Glo luciferase readout)
# particulars: 30 min compound preincubation, then R*48 agonist for 5 hours, read-out: Potency
Provide the recorded IC50 for the entries that follow.

// known answers, use as guide
[[record]]
compound = "COCCN[C@@H]1C[C@H](C2CC2)CN(c2ccc(C#N)c3nccnc23)C1 (relative stereo) [Compound 176]"
tgt = "TLR7/NFKb HEK cells (Homo sapiens, UniProt Q9NYK1)"
observed = "1000 to 10000 nM"

[[record]]
compound = "C[C@H]1C[C@@H](NC(=O)CNC(C)(C)C)CN(c2ccnc3nccnc23)C1 [Compound 143]"
tgt = "TLR7/NFKb HEK cells (Homo sapiens, UniProt Q9NYK1)"
observed = "> 10000 nM"

[[record]]
compound = "C[C@@H]1CN(c2ccnc3nccnc23)C[C@H](C(=O)N2CC(N)C2)O1 [Compound 63]"
tgt = "TLR7/NFKb HEK cells (Homo sapiens, UniProt Q9NYK1)"
observed = "> 10000 nM"

[[record]]
compound = "C#CC(=O)N[C@@H]1C[C@H](C)CN(c2ccc(C(F)(F)F)c3ncccc23)C1 [Compound 472]"
tgt = "TLR7/NFKb HEK cells (Homo sapiens, UniProt Q9NYK1)"
observed = "< 1000 nM"

[[record]]
compound = "C[C@H]1C[C@@H](NC(=O)C(C2CC2)N(C)C)CN(c2ccc(C(F)(F)F)c3ncccc23)C1 (some centres unmarked) [Compound 519]"
tgt = "TLR7/NFKb HEK cells (Homo sapiens, UniProt Q9NYK1)"
observed = "< 1000 nM"

[[record]]
compound = "CN1CCC(NC2CC(C(F)(F)F)CN(c3ccc(C#N)c4nccnc34)C2)C1=O (single isomer, unassigned) [Compound 227]"
tgt = "TLR7/NFKb HEK cells (Homo sapiens, UniProt Q9NYK1)"
observed = "1000 to 10000 nM"


Your task in this section: give IC50 for each listed record.
1. C[C@H]1C[C@@H](NC(=O)CC(O)C(C)(C)C)CN(c2ccc(C#N)c3nccnc23)C1 (single isomer, unassigned) [Compound 147]
2. CCN(C)[C@H](C)C(=O)N[C@@H]1C[C@H](C)CN(c2ccc(C#N)c3nccnc23)C1 [Compound 98]
3. C[C@H]1C[C@@H](N(C)C(=O)CC(C)(C)N)CN(c2ccc(C(F)(F)F)c3ncccc23)C1 [Compound 465]
4. N#Cc1ccc(N2C[C@@H](NC(=O)CCC(=O)N3CCC3)C[C@@H](C(F)(F)F)C2)c2cccnc12 (racemic) [Compound 482]
5. CC(C(=O)N[C@@H]1C[C@H](C)CN(c2ccc(C(F)(F)F)c3nccnc23)C1)N1CC(N)C1 (single isomer, unassigned) [Compound 369]
6. CC1CCCC(C)N1CCNC(=O)C1CCN(c2ccc(C#N)c3ncccc23)CC1 (centres unmarked) [Compound 414]

Given back:
< 1000 nM
< 1000 nM
< 1000 nM
1000 to 10000 nM
< 1000 nM
< 1000 nM

Your task in this section: give IC50 for each listed record.
1. C[C@H]1C[C@@H](NC(=O)CC2CCN(C)CC2)CN(c2ccc(C(F)F)c3ncccc23)C1 [Compound 316]
2. CC(O)C(=O)N[C@@H]1C[C@H](C)CN(c2ccc(C(F)F)c3nccnc23)C1 (some centres unmarked) [Compound 79]
3. CC(C)[C@H](O)C(=O)NC1CC(C2CC2)CN(c2ccc(C#N)c3nccnc23)C1 (single isomer, unassigned) [Compound 173]
4. C[C@H]1C[C@@H](NC(=O)[C@@H](N)CO)CN(c2ccc(C(F)(F)F)c3ncccc23)C1 [Compound 476]

Given back:
["< 1000 nM", "1000 to 10000 nM", "1000 to 10000 nM", "< 1000 nM"]

Your task in this section: give IC50 for each listed record.
1. C[C@H]1C[C@@H](NC(=O)CO)CN(c2ccc(C(F)(F)F)c3nccnc23)C1 [Compound 250]
2. CC(C(=O)N[C@@H]1C[C@H](C)CN(c2ccc(C(F)(F)F)c3nccnc23)C1)N1CCC(O)CC1 (single isomer, unassigned) [Compound 372]
3. CCN(C)CCNC(=O)C1CCN(c2ccc(C(F)(F)F)c3ncccc23)CC1 [Compound 436]
4. C[C@H]1C[C@@H](NC(=O)CC2CCN(C)CC2)CN(c2ccc(C(F)(F)F)c3nccnc23)C1 [Compound 253]
5. C[C@H]1C[C@@H](NC(=O)CNS(C)(=O)=O)CN(c2ccc(C#N)c3nccnc23)C1 [Compound 140]
6. CCC(C)CC(=O)N[C@@H]1C[C@H](C)CN(c2ccnc3nccnc23)C1 (single isomer, unassigned) [Compound 152]

Given back:
1: < 1000 nM; 2: < 1000 nM; 3: < 1000 nM; 4: < 1000 nM; 5: < 1000 nM; 6: 1000 to 10000 nM

###

Provide the recorded IC50 for the entries that follow.
# tgt: TLR7/NFKb HEK cells (Homo sapiens)
# Sequence (Q9NYK1 27-1049): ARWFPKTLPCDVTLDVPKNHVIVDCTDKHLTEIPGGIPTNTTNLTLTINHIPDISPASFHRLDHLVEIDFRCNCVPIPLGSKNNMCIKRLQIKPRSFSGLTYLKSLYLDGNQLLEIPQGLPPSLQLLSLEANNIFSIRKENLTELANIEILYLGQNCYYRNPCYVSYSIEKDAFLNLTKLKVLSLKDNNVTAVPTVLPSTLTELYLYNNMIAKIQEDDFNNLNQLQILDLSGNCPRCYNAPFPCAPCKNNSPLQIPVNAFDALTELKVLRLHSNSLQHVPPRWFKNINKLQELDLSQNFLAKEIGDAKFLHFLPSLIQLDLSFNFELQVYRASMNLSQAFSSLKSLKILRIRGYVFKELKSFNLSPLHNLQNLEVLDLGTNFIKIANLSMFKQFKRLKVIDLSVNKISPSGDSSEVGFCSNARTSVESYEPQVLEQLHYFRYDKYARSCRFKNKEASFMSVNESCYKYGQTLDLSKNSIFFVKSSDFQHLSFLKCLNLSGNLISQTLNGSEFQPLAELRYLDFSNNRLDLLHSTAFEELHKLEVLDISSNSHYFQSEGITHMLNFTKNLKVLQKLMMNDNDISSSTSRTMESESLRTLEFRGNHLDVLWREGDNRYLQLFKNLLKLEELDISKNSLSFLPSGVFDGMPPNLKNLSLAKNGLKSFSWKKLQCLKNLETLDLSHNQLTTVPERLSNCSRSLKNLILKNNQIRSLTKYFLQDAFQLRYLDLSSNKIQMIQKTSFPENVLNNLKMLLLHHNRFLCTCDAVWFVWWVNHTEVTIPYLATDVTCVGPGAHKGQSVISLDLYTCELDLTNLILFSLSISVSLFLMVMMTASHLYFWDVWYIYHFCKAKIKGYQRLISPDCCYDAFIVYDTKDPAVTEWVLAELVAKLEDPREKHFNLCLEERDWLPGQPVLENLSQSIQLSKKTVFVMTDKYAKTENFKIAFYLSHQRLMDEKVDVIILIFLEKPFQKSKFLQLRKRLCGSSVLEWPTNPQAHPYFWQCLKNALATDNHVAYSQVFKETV
# test-name: HEK Cell Assay (TLR7/NFKb reporter, Steady-Glo luciferase readout)
# particulars: 30 min compound preincubation, then R*48 agonist for 5 hours, read-out: Potency

// known answers, use as guide
[[record]]
compound = "CCN(CC)CCNC(=O)N1CCN(c2ccc(C#N)c3nccnc23)CC1 [Compound 453]"
value_type = "IC50"
observed = "< 1000 nM"

[[record]]
compound = "COCCN[C@@H]1C[C@H](C)CN(c2ccc(C#N)c3nccnc23)C1 [Compound 19]"
value_type = "IC50"
observed = "< 1000 nM"

[[record]]
compound = "C[C@H]1C[C@@H](NC(=O)CN2CC(N)C2)CN(c2ccc(C(F)(F)F)c3ncccc23)C1 [Compound 280]"
value_type = "IC50"
observed = "< 1000 nM"

[[record]]
compound = "O=C(NC1CCN(CC2CC2)C1)C1CCN(c2ccc(C(F)(F)F)c3ncccc23)CC1 (single isomer, unassigned) [Compound 444]"
value_type = "IC50"
observed = "< 1000 nM"

[[record]]
compound = "C[C@H]1C[C@@H](NC2CCC(O)CC2)CN(c2ccc(C#N)c3nccnc23)C1 (single isomer, unassigned) [Compound 135]"
value_type = "IC50"
observed = "< 1000 nM"


Your task in this section: give IC50 for each listed record.
1. CCN(CC)C1CCN(C(=O)C2CCN(c3ccnc4nccnc34)CC2)CC1 [Compound 2]
2. C[C@@H]1CN(c2ccnc3nccnc23)C[C@H](CN2CCC(N3CCOCC3)CC2)O1 [Compound 60]
3. C[C@H]1C[C@@H](NCC(N)=O)CN(c2ccc(C(F)(F)F)c3ncccc23)C1 [Compound 570]

Given back:
1. 1000 to 10000 nM
2. 1000 to 10000 nM
3. < 1000 nM
